ASSAY NAME: Compound solubility in water
Assay type: physicochemical
VALUE KIND: solubility (µg/mL)

Please review the entries below; each comes with its answer.
O=C(NCCC1CC1)n1cnc(-c2cscn2)c1 [Example 69] : 32
Cc1cn(C(=O)NCC#Cc2ccccc2)c(OCCN2CCN(C)CC2)n1 [Example 197] : 38
Cc1cn(C(=O)NCCCC2(C(F)(F)F)CC2)c(OCCN2CCN(C)CC2)n1 [Example 200] : 49
CC(C)CCNC(=O)n1cnc(-c2nccs2)c1 [Example 50] : 23.5
CC(C)CC(C)NC(=O)n1cnc(C(C)(C)C)c1 (centres unmarked) [Example 79] : 11
CC(C)CCNC(=O)n1cnc(-c2ccncc2)c1 [Example 41] : 22.1
COc1nc(C(C)(C)C)cn1C(=O)NCCCCn1ccc(C(C)(C)C)n1 [Example 134] : 18
CCC1(NC(=O)n2cc(C(C)(C)C)nc2OC)CC1 [Example 129] : 16

[P] Cc1cn(C(=O)NCCc2ccccc2)c(OCCN2CCN(C)CC2)n1 [Example 190]
[Q] COc1nc(C2CCOC2)cn1C(=O)NCCCCC1CC1 (centres unmarked) [Example 131]
[R] COc1nc(C(C)(C)C)cn1C(=O)NC1CCCC(F)(F)C1 (centres unmarked) [Example 99]
[S] CC(C)(C)c1cn(C(=O)NCCOc2ccccc2)cn1 [Example 19]
Arrange the 4 compounds by rising solubility, starting with the smallest. Answer format: the labels, ordered as requested.
S, R, Q, P

[I] COc1nc(C)cn1C(=O)NCC#CCc1ccccc1 [Example 181]
[II] COc1ccc(-c2cn(C(=O)NCCC3CC3)cn2)cn1 [Example 70]
Could you please tell me which of these two has the higher solubility: I or II ? Indicate which entry you chose by stating its label.
I

Measured values drawn from patent US20220411388A1 for this set.
